Assay: Cytotoxicity: LDH leakage from platelets
Format: cell-based
Conditions: rat, Cytotoxicity (%)
OUTCOME_MEASURE: cytotoxicity at 5 min, 200 µM (%)
Give bare numbers, in %.

### Prompt Quick one: cytotoxicity at 5 min, 200 µM for `O=C1C[C@@H](c2ccc(O)cc2)Oc2cc(O)cc(O)c21` ?
### Response 1.16

====

Assay: Cytotoxicity: LDH leakage from platelets
Type: cell-based
Conditions: rat, Cytotoxicity (%)
OUTCOME_MEASURE: cytotoxicity at 5 min, 100 µM (%)
One number for each entry, in %.

### Prompt Entry `O=C1C[C@@H](c2ccc(O)cc2)Oc2cc(O)cc(O)c21` : reported cytotoxicity at 5 min, 100 µM = ?
### Response 0.99

====

Assay: Cytotoxicity: LDH leakage from platelets
Type: cell-based
Settings: rat, Cytotoxicity (%)
OUTCOME_MEASURE: cytotoxicity at 5 min, 800 μM (%)
One number for each entry, in %.

### Prompt Which cytotoxicity at 5 min, 800 μM is reported for this compound? O=C1C[C@@H](c2ccc(O)cc2)Oc2cc(O)cc(O)c21 [Naringenin]
### Response 2.5
